# target-under-test: GST fusion protein containing the Met kinase domain (Homo sapiens, UniProt P08581)
# Construct: Purified GST fusion protein containing the Met kinase domain, SUGEN, Inc
# Sequence (P08581 1078-1345 limits assumed): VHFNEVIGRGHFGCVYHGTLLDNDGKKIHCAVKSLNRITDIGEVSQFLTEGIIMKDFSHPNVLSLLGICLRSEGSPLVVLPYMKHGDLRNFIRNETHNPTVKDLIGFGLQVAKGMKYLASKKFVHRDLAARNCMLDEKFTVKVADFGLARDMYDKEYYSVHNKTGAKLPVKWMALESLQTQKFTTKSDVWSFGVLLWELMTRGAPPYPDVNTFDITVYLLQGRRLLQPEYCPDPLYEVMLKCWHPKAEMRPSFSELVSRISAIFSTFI
# assay-summary: MET transphosphorylation assay (ELISA, poly(glu-tyr) substrate)
# Assay type: biochemical
observed-property: IC50 (nM)

See these solved cases before continuing.
CC(Oc1cc(-c2ccc(C(=O)N3CCC(N4CCCC4)CC3)cc2)cnc1N)c1c(F)ccc(F)c1Cl (centres unmarked) [Example I-339] : 62
CC(Oc1cc(-c2ccc(OCCC3CCCN3C)cc2)cnc1N)c1c(Cl)ccc(F)c1Cl (centres unmarked) [Example I-356] : 790
Nc1ncc(-c2ccc(NS(=O)(=O)CCNC3CC3)cc2)nc1OCc1c(F)ccc(F)c1Cl [II-20] : 1200

a: CN(C)CCS(=O)(=O)Nc1cccc(-c2cnc(N)c(OCc3c(F)ccc(F)c3Cl)c2)c1 [Example I-259]
b: CC(Oc1cc(-c2ccc(C(=O)N3CCC(N)CC3)cc2)cnc1N)c1c(Cl)ccc(F)c1Cl (centres unmarked) [Example I-305]
c: CC(Oc1cc(-c2ccc(C(=O)N3CCN(C)CC3)cn2)cnc1N)c1c(F)ccc(F)c1Cl (centres unmarked) [Example I-517]
d: CC(Oc1cc(-c2ccc(OCCN3CCCC3)cc2)cnc1N)c1c(Cl)ccc(F)c1Cl (centres unmarked) [Example I-355]
Please list these in order of increasing IC50. Thank you! Answer format: the labels, ordered as requested. b, c, d, a
